Origin of the recorded values: paper PMC9437035

Biological target: Olfr1377 (Mus musculus)
Sequence (B2RQ46 1-307): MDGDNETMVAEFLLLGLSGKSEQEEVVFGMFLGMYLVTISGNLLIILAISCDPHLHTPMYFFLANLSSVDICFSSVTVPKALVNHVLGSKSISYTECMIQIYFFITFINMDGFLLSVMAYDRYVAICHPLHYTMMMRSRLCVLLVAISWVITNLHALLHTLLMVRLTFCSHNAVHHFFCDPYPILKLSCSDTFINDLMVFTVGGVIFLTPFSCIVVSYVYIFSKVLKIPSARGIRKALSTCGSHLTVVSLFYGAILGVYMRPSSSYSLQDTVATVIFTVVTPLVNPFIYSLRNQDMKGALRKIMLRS
Experiment: CRE-luciferase reporter assay in Hana3A cells
measuredParameter: EC50 (µM)
Supply the numeric figure in µM, leaving out any unit text.

CC(=O)c1ccccc1O [2′-hydroxyacetophenone] = 300
CC(=O)c1ccc(C)cc1 = 1
CC(=O)c1ccccc1 = 10.1

Read the next record carefully.
Name the reported EC50 value associated with the molecule "COc1ccc(C(C)=O)cc1"
0.008
